Experiment: A CellTox Green Cytotoxicity Assay to monitor cytotoxicity in HEK293 cells - 8 hour (AID 1224884); also: nearly all actives have a fitted effect of over 35% in size
Conditions: CellTox Green fluorescence; series mostly up to 76.8 µM
Source text: National Center for Advancing Translational Sciences [NCATS] NIH Chemical Genomics Center [NCGC] U.S. Environmental Protection Agency [EPA] National Institutes of Environmental Health Sciences [NIEHS] National Toxicology Program [NTP] Cell-based models are critical for drug discovery. […] Viable cells produce no appreciable increases in fluorescence. Therefore, the fluorescence signal produced by the binding interaction with dead cell DNA is proportional to cytotoxicity. […]
Records with an inconclusive call do not appear. Calls of active or inactive are those of the source. Calls follow the shape of the dose curve; as a rule, active = well fitted activation curve with a large enough effect in the repeat runs; inconclusive = weak or mixed curves; inactive = flat fitted curve, though single readings scatter.
Recorded endpoint: outcome

compound="CC1=NC(C)OC1C (centres undefined)" result=inactive
compound="CC(C)(C)C(=O)OCOC(=O)C1N2C(=O)CC2S(=O)(=O)C1(C)C (centres undefined)" result=inactive
compound=CCCC/C=C/CCCCO result=inactive
compound=Cc1ccc(O)c(C(C)(C)C)c1 result=inactive

====

Experiment: qHTS RealTime-Glo MT Cell Viability Assay in HepG2 cells - 16 hour (AID 1224885); also: nearly all actives have a fitted effect of over 50% in size; also: potency is read from the fitted curve at half-maximal effect
Conditions: RealTime-Glo luminescence; series mostly up to 76.8 µM
Source text: U.S. Tox21 Program National Center for Advancing Translational Sciences [NCATS] NIH Chemical Genomics Center [NCGC] U.S. Environmental Protection Agency [EPA] National Institutes of Environmental Health Sciences [NIEHS] National Toxicology Program [NTP] U.S. Food and Drug Administration [FDA] Tox21 Assay Overview: Measure of cell viability is critical in the cell-base assay. Analysis of cell viability is necessary for the characterization of cell responses to cytotoxic drugs and environmental stress. […]
Results filed as inconclusive are left out. The source made the active and inactive calls. Calls come from the whole dose curve; as a rule, active = well fitted cell-killing curve with a large enough effect in the repeat runs; inconclusive = weak or mixed curves; inactive = flat fitted curve, though single readings scatter.
Recorded endpoint: Potency

compound=CSc1ccc(/C=C2/C(C)=C(CC(=O)O)c3cc(F)ccc32)cc1 recorded_endpoint=Potency result=inactive
compound=O=S1(=O)CC(Cl)(Cl)C(Cl)(Cl)C1 recorded_endpoint=Potency result="6.92 µM (active)"
compound=CCCCN(CCCC)c1ccc(C(=O)c2ccccc2C(=O)O)c(O)c1 recorded_endpoint=Potency result=inactive
compound=CCc1cc(Cc2cc(CC)cc(C(C)(C)C)c2O)c(O)c(C(C)(C)C)c1 recorded_endpoint=Potency result="49 µM (active)"
compound=CCCCCCCCCCCCCCCC(=O)OC[C@H](O)[C@H]1OC(=O)C(O)=C1O recorded_endpoint=Potency result=inactive
compound=CCCCc1oc2ccc(NS(C)(=O)=O)cc2c1C(=O)c1ccc(OCCCN(CCCC)CCCC)cc1 recorded_endpoint=Potency result="19 µM (active)"
compound=CN(C/C=C/C#CC(C)(C)C)Cc1cccc2ccccc12 recorded_endpoint=Potency result=inactive
compound=CCc1cc(Cc2cc(CC)c(N)c(CC)c2)cc(CC)c1N recorded_endpoint=Potency result=inactive
compound=c1ccc(CSCc2ccccc2)cc1 recorded_endpoint=Potency result=inactive
compound=Cc1ccc(O)c(C(C)(C)C)c1 recorded_endpoint=Potency result=inactive

Identify Potency associated with the compound C=C(C)C(=O)OCC[N+](C)(C)C
inactive

Look up Potency of CO[Si](CCCNc1ccccc1)(OC)OC and report it.
inactive

Complete the entry with Potency for CC(C)(C)C(=O)OCOC(=O)C1N2C(=O)CC2S(=O)(=O)C1(C)C (centres undefined)
inactive

Tell us which Potency value is on record for Cc1ccc(-n2nc(C(C)(C)C)cc2NC(=O)Nc2ccc(OCCN3CCOCC3)c3ccccc23)cc1
inactive

Indicate its recorded Potency; the compound in question is Oc1ccc(N=Nc2ccccc2)cc1
inactive

// Input: NC(=O)CC[C@@H]1NC(=O)[C@H](Cc2ccccc2)NC(=O)[C@H](Cc2ccc(O)cc2)NC(=O)CCSSC[C@@H](C(=O)N2CCC[C@H]2C(=O)N[C@@H](CCCN=C(N)N)C(=O)NCC(N)=O)NC(=O)[C@H](CC(N)=O)NC1=O . Output its Potency only.
inactive

Return the recorded Potency value; entry: Cc1cc(CCN2CCN(c3nsc4ccccc34)CC2)cc2c1NC(=O)CC2(C)C
54.9 µM (active)
